- Assay info: Effective permeability of compound at pH 4.2 after 5 hrs by PAMPA
- Format: ADME
- Recorded conditions: read-out: Peff
Reported Papp at 5 h values follow for various compounds
Reply with just the number (in ×10⁻⁶ cm/s).

These recorded examples may help you get a feel for the data.
Compound: COc1ccc(CN(C)c2nc(C(C)c3c(F)cccc3F)c(C)c(=O)[nH]2)cc1 (stereo not drawn)
Reported: 3.78
--
Compound: Cc1c(Cc2c(Cl)cccc2Cl)nc(N(C)Cc2ccc(N3CCN(C)CC3)cc2)[nH]c1=O
Reported: 0.58

Now for another entry.
// query Write down Papp at 5 h measured for item Cc1c(Cc2c(Cl)cccc2Cl)nc(N(C)Cc2ccc([N+](=O)[O-])cc2)[nH]c1=O
// result 1.9

----------
- Assay info: Selectivity index, ratio of CC50 for human TZM-bl cells to EC50 for HIV1 NL4.3 infected in human TZM-bl cells
- Assay type: toxicity, cell-based
- Recorded conditions: read-out: Ratio CC50/EC50
Property name: selectivity ratio

// query Report selectivity ratio for COc1ccc(CN(C)c2nc(C(C)c3c(F)cccc3F)c(C)c(=O)[nH]2)cc1 (stereo unspecified)
// result > 10000

----------
- Assay info: Cytotoxicity against human TZM-bl cells assessed as reduction in cell viability after 2 days by WST-1 assay
- Type: cell-based
Heads up, the class ranges for CC50 at 48 h are lo: < 10 µM; mid: ≥ 10 µM and < 30 µM; hi: ≥ 30 µM

Some solved cases for reference:
Molecule: Cc1c(Cc2c(Cl)cccc2Cl)nc(N(C)Cc2ccc(N3CCNCC3)cc2)[nH]c1=O
Class label: mid
//
Molecule: Cc1c(Cc2c(Cl)cccc2Cl)nc(N(C)Cc2ccc([N+](=O)[O-])cc2)[nH]c1=O
Class label: mid

// query Given Cc1c(C(C)c2c(Cl)cccc2Cl)nc(N(C)Cc2ccc([N+](=O)[O-])cc2)[nH]c1=O (stereo not drawn) , name the class its CC50 at 48 h places it in.
// result hi

// query # classify by CC50 at 48 h band: Cc1c(C(C)c2c(F)cccc2F)nc(N(C)Cc2ccc([N+](=O)[O-])cc2)[nH]c1=O (stereo not drawn)
// result hi

// query Category of Cc1c(C(C)c2c(Cl)cccc2Cl)nc(N(C)Cc2ccc(N3CCNCC3)cc2)[nH]c1=O (stereo not drawn) :
// result mid

// query Looking at COc1ccc(C2CC2CSc2nc(C(C)c3c(F)cccc3F)c(C)c(=O)[nH]2)cc1 (stereo not drawn) , which class would you pick?
// result hi

// query Which bin should I file Cc1c(C(C)c2c(F)cccc2F)nc(N(C)Cc2ccc(N3CCN(C)CC3)cc2)[nH]c1=O (stereo not drawn) under?
// result mid

// query Class (by measured CC50 at 48 h) for Cc1cc(C)c(Nc2ccnc(Nc3ccc(C#N)cc3)n2)c(C)c1 [DAPIVIRINE]
// result lo

// query Entry Cc1c(C(C)c2c(Cl)cccc2Cl)nc(N(C)Cc2ccc(N3CCOCC3)cc2)[nH]c1=O (stereo not drawn) belongs to which category?
// result hi

// query Which CC50 at 48 h category applies to COc1ccc(CN(C)c2nc(C(C)c3c(F)cccc3F)c(C)c(=O)[nH]2)cc1 (stereo not drawn) here?
// result hi

// query Into which bin does this molecule go? Cc1c(Cc2c(Cl)cccc2Cl)nc(N(C)Cc2ccc(N3CCN(C(=O)OC(C)(C)C)CC3)cc2)[nH]c1=O
// result lo

// query Which CC50 at 48 h band matches Cc1c(C(C)c2c(F)cccc2F)nc(N(C)Cc2n[nH]c3ccccc23)[nH]c1=O (stereo not drawn) ?
// result hi

// query Which bin should I file Cc1c(Cc2c(Cl)cccc2Cl)nc(N(C)Cc2ccc(N3CCN(C)CC3)cc2)[nH]c1=O under?
// result lo

----------
- Assay info: Chemical stability in pH 4.2 solution assessed as drug recovery using compound gel formulation incubated for 1 month at room temperature under dark condition
- Assay type: physicochemical
- Recorded conditions: pH 4.2 solution (compound gel formulation), read-out: Drug recovery
Property name: remaining at 730.5 h (%)
A number alone suffices; assume %.

// query Report remaining at 730.5 h, nothing else, for this compound: COc1ccc(CN(C)c2nc(C(C)c3c(F)cccc3F)c(C)c(=O)[nH]2)cc1 (stereo unspecified)
// result 100

----------
- Assay info: Effective permeability of compound at pH 7.4 after 5 hrs by PAMPA
- Assay type: ADME
- Recorded conditions: read-out: Peff
Hi! Could you tag entries with Papp at 5 h below 1 ×10⁻⁶ cm/s as fulfilled, and those at or above as not fulfilled? Much appreciated.

Consider the worked cases shown below.
Compound: Cc1c(Cc2c(Cl)cccc2Cl)nc(N(C)Cc2ccc([N+](=O)[O-])cc2)[nH]c1=O
Class label: not fulfilled
//
Compound: Cc1c(Cc2c(Cl)cccc2Cl)nc(N(C)Cc2ccc(N3CCN(C)CC3)cc2)[nH]c1=O
Class label: not fulfilled
//
Compound: Cc1c(Cc2c(Cl)cccc2Cl)nc(N(C)Cc2ccc(N3CCOCC3)cc2)[nH]c1=O
Class label: not fulfilled
//
Compound: Cc1c(C(C)c2c(Cl)cccc2Cl)nc(N(C)Cc2ccc(N3CCN(C)CC3)cc2)[nH]c1=O (stereo not given)
Class label: fulfilled

Pending compound:
// query Lab log: compare recorded Papp at 5 h with 1 ×10⁻⁶ cm/s; is it strictly lower for COc1ccc(CN(C)c2nc(C(C)c3c(F)cccc3F)c(C)c(=O)[nH]2)cc1 (stereo not given) ?
// result not fulfilled

----------
Listing of entries alongside the reported pEC50.
- Test system: Human immunodeficiency virus 1
- Assay info: Antiviral activity against HIV1 NL4.3 infected in human TZM-bl cells using compound gel formulation incubated for 72 hrs by luciferase based transwell assay
- Type: functional, organism-based
- Recorded conditions: Human immunodeficiency virus 1, NL4.3, TZM-bl
Schema: pEC50 number; meaning minus log10 of the concentration expressed in molar units.

Molecule: C[C@H](Cn1cnc2c(N)ncnc21)OCP(=O)(O)O [TENOFOVIR ANHYDROUS]
Property name: pEC50
Reported: 5.52

// query // Input: COc1ccc(CN(C)c2nc(C(C)c3c(F)cccc3F)c(C)c(=O)[nH]2)cc1 (configuration not stated) . Output its pEC50 only.
// result 7.52

----------
- System: Human immunodeficiency virus 1
- Assay info: Antiviral activity against HIV1 NL4.3 expressing reverse transcriptase V90I mutant infected in human TZM-bl cells incubated for 30 mins prior to infection measured after 48 hrs by luciferase assay
- Format: functional, organism-based
- Recorded conditions: Human immunodeficiency virus 1, NL4.3, TZM-bl
The entries below come with measured EC50 values attached.
Only the number, expressed in nM, is required.

Compound: Cc1c(C(C)c2c(F)cccc2F)nc(N(C)Cc2n[nH]c3ccccc23)[nH]c1=O (stereo not given)
Experimental target: Human immunodeficiency virus 1
EC50 / nM: 687

Compound: Cc1c(C(C)c2c(F)cccc2F)nc(N(C)Cc2ccc([N+](=O)[O-])cc2)[nH]c1=O (stereo not given)
Experimental target: Human immunodeficiency virus 1
EC50 / nM: 30

Compound: Cc1c(C(C)c2c(F)cccc2F)nc(N(C)Cc2ccc(N3CCN(C)CC3)cc2)[nH]c1=O (stereo not given)
Experimental target: Human immunodeficiency virus 1
EC50 / nM: 22

Compound: Cc1c(Cc2c(Cl)cccc2Cl)nc(N(C)Cc2ccc([N+](=O)[O-])cc2)[nH]c1=O
Experimental target: Human immunodeficiency virus 1
EC50 / nM: 13

// query Name the recorded EC50 of the compound listed here: COc1ccc(CN(C)c2nc(C(C)c3c(F)cccc3F)c(C)c(=O)[nH]2)cc1 (stereo not given)
// result 8.7

----------
- Experimental target: Human immunodeficiency virus type 1 reverse transcriptase (Human immunodeficiency virus 1)
- Assay info: Inhibition of recombinant HIV1 His-tagged p66/p51 reverse transcriptase expressed in Escherichia coli assessed as reduction in [3H]dTTP incorporation using poly(rA)-oligo(dT) (12 to 18 bp) as template/primer incubated for 20 mins by scintillation counting method
Property name: pIC50
// pIC50 is dimensionless: -log10 of concentration (M)

Example entries begin here.
Compound: COc1ccc(CN(C)c2nc(Cc3c(Cl)cccc3Cl)c(C)c(=O)[nH]2)cc1
pIC50: 8.30

Compound: COc1ccc(CN(C)c2nc(C(C)c3c(Cl)cccc3Cl)c(C)c(=O)[nH]2)cc1 (centres undefined)
pIC50: 7.77

Compound: Cc1c(Cc2c(Cl)cccc2Cl)nc(N(C)Cc2ccc(N3CCOCC3)cc2)[nH]c1=O
pIC50: 7.05

We next turn to a different compound, shown below.
// query // output pIC50; input Cc1c(Cc2c(Cl)cccc2Cl)nc(N(C)Cc2ccc([N+](=O)[O-])cc2)[nH]c1=O ; system Human immunodeficiency virus type 1 reverse transcriptase (Human immunodeficiency virus 1)
// result 8.11

----------
- Assay info: Cytotoxicity against human TZM-bl cells assessed as reduction in cell viability after 2 days by WST-1 assay
- Assay type: cell-based
Catalogue of compounds with associated CC50 at 48 h

// query For Cc1c(C(C)c2c(Cl)cccc2Cl)nc(N(C)Cc2ccc(N3CCN(C)CC3)cc2)[nH]c1=O (stereo not given) , write its CC50 at 48 h.
// result > 10 µM

// query Note CC50 at 48 h for the compound shown: Cc1c(Cc2c(Cl)cccc2Cl)nc(N(C)Cc2ccc(N3CCOCC3)cc2)[nH]c1=O
// result 9.9 µM

// query Answer with the recorded CC50 at 48 h for the compound listed here: COc1ccc(CN(C)c2nc(C(C)c3c(F)cccc3F)cc(=O)[nH]2)cc1 (stereo not given)
// result 48.1 µM

// query Supply CC50 at 48 h value. Item: COc1ccc(CN(C)c2nc(Cc3c(Cl)cccc3Cl)c(C)c(=O)[nH]2)cc1
// result 17.9 µM

// query // Input: COc1ccc(CN(C)c2nc(C(C)c3c(Cl)cccc3Cl)c(C)c(=O)[nH]2)cc1 (stereo not given) . Output its CC50 at 48 h only.
// result > 100 µM
